Listed here are compounds together with their documented T/C.
Tested on: BDF1 mice, B16 melanoma ip, median survival T/C
Assay: NCI In Vivo Anticancer Drug Screen. Data for tumor model B16 Melanoma (intraperitoneal) in B6D2F1 (BDF1) mice
Conditions: endpoint: median survival time; dose: 50.0 mg/kg/injection; schedule: Q01DX009 (ip); vehicle: saline with Tween-80; higher = longer survival
Protocol: The antitumor activity of compounds was measured in mice bearing transplantable tumors. Survival or tumor size were measured and the results are expressed as the measurement made in the treated group (T) divided by the measurement made in the vehicle treated control group (C). The tumor model used in this assay is B16 Melanoma (intraperitoneal) in B6D2F1 (BDF1) mice
Inconclusive results and toxic doses are left out.

Example results:
• CCCn1cnc2c(=S)nc[nH]c21 = 106 % of control
• CCCCCCCCCC(=O)OC(C)C(=O)N(CCCC)CCCC (stereo not drawn) = 97 % of control
• CCN(CC)CC(C)(C)CO = 99 % of control
• CC(=O)N(C)O = 107 % of control
• Cc1cccc(NC(=O)c2ccccc2)c1C = 99 % of control

Ask: Record request: T/C value, item `Cc1cc(=O)[nH]c(N/N=C/c2cc(Cl)ccc2O)n1`
Reply: 86 % of control

Ask: Requested field: T/C. Item: `C1CC[N-]CC1.C1CC[N-]CC1.[Cl][Rh]([Cl])[Cl]`
Reply: 102 % of control

Ask: # get_value(readout='T/C', item= `CCCCC(=O)NN` )
Reply: 100 % of control

Ask: What does the data say about its T/C? Entry: CCOC(C)C(/C=N/NC(N)=S)=NNC(N)=S (stereo not drawn)
Reply: 90 % of control

Ask: Any idea what T/C was measured for `CCOc1ccnc(OCC)n1` ?
Reply: 101 % of control

Ask: GET /values?readout=T/C&item= `CCCCCCCCCCCCCCCCOc1ccccc1C(C)=O`
Reply: 92 % of control

Ask: // returns reported T/C for input `COc1cc2c3cc1Oc1c(O)c(OC)cc4c1[C@H](Cc1ccc(cc1)Oc1cc(ccc1O)C[C@H]3N(C)CC2)N(C)CC4`
Reply: 118 % of control

Ask: Look up T/C for this compound: `N#CC1C(=O)c2ccccc2C1=O`
Reply: 106 % of control

====

Measured T/C, listed per entry.
System: BDF1 mice, B16 melanoma ip, median survival T/C
Assay: NCI In Vivo Anticancer Drug Screen. Data for tumor model B16 Melanoma (intraperitoneal) in B6D2F1 (BDF1) mice
Conditions: endpoint: median survival time; dose: 1.56 mg/kg/injection; schedule: Q01DX009 (ip); vehicle: Klucel (hydroxypropylcellulose) (HPC); higher = longer survival
Inconclusive results and toxic doses are left out.

* CC(C(=O)O)C(=O)O.[NH2-].[NH2-].[Pt+2] | 109 % of control
* CC(C)=CCN1CCC2(C)c3cc(O)ccc3CC1C2C (stereo not given) | 123 % of control
* C[CH2][Pb]([CH2]C)([CH2]C)[N]1C(=O)c2ccccc2C1=O | 112 % of control
* C[CH2][Pb]([CH2]C)([CH2]C)[O]C(=O)COC | 96 % of control

Ask: Which T/C reading was recorded for the molecule `Clc1cc(CBr)c(Cl)c(Cl)c1CBr` ?
Reply: 94 % of control
